- runDescription: Agonist activity at rhesus monkey GCGR
- Set-up: species or system Macaca mulatta
assayReadout: pEC50
When answering, recall that pEC50 equals minus log10 of the concentration in mol/L, and write that number alone.

Task: Any idea what its pEC50 is? The sequence is `GLUCAGON`
Result: 11.52
